# Test system: Mycobacterium tuberculosis Erdman (autoluminescent)
# Measurement protocol: total FIC50 (Loewe) at 50% inhibition, three-drug combination (log2); higher = more antagonistic
# Condition info: in vitro model: butyrate; time point: constant (~7 days, model-specific)
Exercise: for every item that follows, state its recorded total FIC50.
Give bare numbers.

CC(C)/N=c1\cc2n(-c3ccc(Cl)cc3)c3ccccc3nc-2cc1Nc1ccc(Cl)cc1 [clofazimine] + NNC(=O)c1ccncc1 [isoniazid] + CO[C@H]1/C=C/O[C@@]2(C)Oc3c(C)c(O)c4c(O)c(c(/C=N/N5CCN(C)CC5)c(O)c4c3C2=O)NC(=O)/C(C)=C\C=C\[C@H](C)[C@H](O)[C@@H](C)[C@@H](O)[C@@H](C)[C@H](OC(C)=O)[C@@H]1C [rifampicin]    0.388
COc1nc2ccc(Br)cc2cc1[C@@H](c1ccccc1)[C@@](O)(CCN(C)C)c1cccc2ccccc12 [bedaquiline] + COc1c(N2C[C@@H]3CCCN[C@@H]3C2)c(F)cc2c(=O)c(C(=O)O)cn(C3CC3)c12 [moxifloxacin] + NC(=O)c1cnccn1 [pyrazinamide]    0.562
COc1c(N2C[C@@H]3CCCN[C@@H]3C2)c(F)cc2c(=O)c(C(=O)O)cn(C3CC3)c12 [moxifloxacin] + NC(=O)c1cnccn1 [pyrazinamide] + CO[C@H]1/C=C/O[C@@]2(C)Oc3c(C)c(O)c4c(O)c(c(/C=N/N5CCN(C6CCCC6)CC5)c(O)c4c3C2=O)NC(=O)/C(C)=C\C=C\[C@H](C)[C@H](O)[C@@H](C)[C@@H](O)[C@@H](C)[C@H](OC(C)=O)[C@@H]1C [rifapentine]    0.589

Now let's try a different one.
Request body: readout total FIC50, system Mycobacterium tuberculosis Erdman (autoluminescent), query COc1nc2ccc(Br)cc2cc1[C@@H](c1ccccc1)[C@@](O)(CCN(C)C)c1cccc2ccccc12 [bedaquiline] + CC(C)/N=c1\cc2n(-c3ccc(Cl)cc3)c3ccccc3nc-2cc1Nc1ccc(Cl)cc1 [clofazimine] + CO[C@H]1/C=C/O[C@@]2(C)Oc3c(C)c(O)c4c(O)c(c(/C=N/N5CCN(C6CCCC6)CC5)c(O)c4c3C2=O)NC(=O)/C(C)=C\C=C\[C@H](C)[C@H](O)[C@@H](C)[C@@H](O)[C@@H](C)[C@H](OC(C)=O)[C@@H]1C [rifapentine] . Return the value. 0.174

###

# System: Mycobacterium tuberculosis Erdman (autoluminescent)
# Measurement protocol: AUC25, normalised area under dose response up to IC25 (three-drug combination) (fraction (0-1)); higher = more potent at low dose
# Condition info: in vitro model: acidic pH 5.7; time point: constant (~7 days, model-specific)
Exercise: for every item that follows, state its recorded AUC25.
One number for each entry.

Below: 4 compounds and their reported AUC25.
NNC(=O)c1ccncc1 [isoniazid] + CC(=O)NC[C@H]1CN(c2ccc(N3CCOCC3)c(F)c2)C(=O)O1 [linezolid] + CO[C@H]1/C=C/O[C@@]2(C)Oc3c(C)c(O)c4c(O)c(c(/C=N/N5CCN(C6CCCC6)CC5)c(O)c4c3C2=O)NC(=O)/C(C)=C\C=C\[C@H](C)[C@H](O)[C@@H](C)[C@@H](O)[C@@H](C)[C@H](OC(C)=O)[C@@H]1C [rifapentine]    0.0908
COc1nc2ccc(Br)cc2cc1[C@@H](c1ccccc1)[C@@](O)(CCN(C)C)c1cccc2ccccc12 [bedaquiline] + NNC(=O)c1ccncc1 [isoniazid] + CO[C@H]1/C=C/O[C@@]2(C)Oc3c(C)c(O)c4c(O)c(c(/C=N/N5CCN(C)CC5)c(O)c4c3C2=O)NC(=O)/C(C)=C\C=C\[C@H](C)[C@H](O)[C@@H](C)[C@@H](O)[C@@H](C)[C@H](OC(C)=O)[C@@H]1C [rifampicin]    0.108
NNC(=O)c1ccncc1 [isoniazid] + O=[N+]([O-])c1cn2c(n1)OC[C@@H](OCc1ccc(OC(F)(F)F)cc1)C2 [pretomanid] + CO[C@H]1/C=C/O[C@@]2(C)Oc3c(C)c(O)c4c(O)c(c(/C=N/N5CCN(C6CCCC6)CC5)c(O)c4c3C2=O)NC(=O)/C(C)=C\C=C\[C@H](C)[C@H](O)[C@@H](C)[C@@H](O)[C@@H](C)[C@H](OC(C)=O)[C@@H]1C [rifapentine]    0.0727
COc1nc2ccc(Br)cc2cc1[C@@H](c1ccccc1)[C@@](O)(CCN(C)C)c1cccc2ccccc12 [bedaquiline] + CC[C@@H](CO)NCCN[C@@H](CC)CO [ethambutol] + CO[C@H]1/C=C/O[C@@]2(C)Oc3c(C)c(O)c4c(O)c(c(/C=N/N5CCN(C6CCCC6)CC5)c(O)c4c3C2=O)NC(=O)/C(C)=C\C=C\[C@H](C)[C@H](O)[C@@H](C)[C@@H](O)[C@@H](C)[C@H](OC(C)=O)[C@@H]1C [rifapentine]    0.114

Answer for every listed entry: what is its AUC25? The entries follow.
1. CC(C)/N=c1\cc2n(-c3ccc(Cl)cc3)c3ccccc3nc-2cc1Nc1ccc(Cl)cc1 [clofazimine] + CC(=O)NC[C@H]1CN(c2ccc(N3CCOCC3)c(F)c2)C(=O)O1 [linezolid] + O=[N+]([O-])c1cn2c(n1)OC[C@@H](OCc1ccc(OC(F)(F)F)cc1)C2 [pretomanid]
2. CC[C@@H](CO)NCCN[C@@H](CC)CO [ethambutol] + CC(=O)NC[C@H]1CN(c2ccc(N3CCOCC3)c(F)c2)C(=O)O1 [linezolid] + CO[C@H]1/C=C/O[C@@]2(C)Oc3c(C)c(O)c4c(O)c(c(/C=N/N5CCN(C)CC5)c(O)c4c3C2=O)NC(=O)/C(C)=C\C=C\[C@H](C)[C@H](O)[C@@H](C)[C@@H](O)[C@@H](C)[C@H](OC(C)=O)[C@@H]1C [rifampicin]
3. CC(=O)NC[C@H]1CN(c2ccc(N3CCOCC3)c(F)c2)C(=O)O1 [linezolid] + NC(=O)c1cnccn1 [pyrazinamide] + CO[C@H]1/C=C/O[C@@]2(C)Oc3c(C)c(O)c4c(O)c(c(/C=N/N5CCN(C)CC5)c(O)c4c3C2=O)NC(=O)/C(C)=C\C=C\[C@H](C)[C@H](O)[C@@H](C)[C@@H](O)[C@@H](C)[C@H](OC(C)=O)[C@@H]1C [rifampicin]
4. CC[C@@H](CO)NCCN[C@@H](CC)CO [ethambutol] + COc1c(N2C[C@@H]3CCCN[C@@H]3C2)c(F)cc2c(=O)c(C(=O)O)cn(C3CC3)c12 [moxifloxacin] + O=[N+]([O-])c1cn2c(n1)OC[C@@H](OCc1ccc(OC(F)(F)F)cc1)C2 [pretomanid]

1. 0.106
2. 0.107
3. 0.0897
4. 0.124
